FYI, the data here is from PubChem BioAssay (NCI).

Overview of recorded growth inhibition for various compounds
# assay-protocol: NCI Yeast Anticancer Drug Screen. Data for the sgs1 mgt1 strain (AID 161);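 note: 0% = growth of cultures given vehicle only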
# condition-details: S. cerevisiae sgs1 mgt1 strain, at 50.0 µM (retest, dose inferred, filed as 5.0), active compounds read high
# Experimental: Growth inhibition of yeast strains with defined genetic alterations is measured as a screen for potential anti-cancer activity. Selected strains with alterations in DNA damage repair or cell cycle control were exposed to compounds and growth inhibition was measured relative to vehicle treated controls. The strain used in this assay is sgs1 mgt1
This is part of a sample that, as a whole, favours compounds with a hit. Of some 79,000 tested, about 15% had one in any assay.
Dear colleague, please return just the value in %, with no unit written.

Past entries and their recorded results:
[[record]]
compound = "C=C1C(=O)N2c3ccccc3C(C)(C)C2(S)C(=O)N1C (stereo not given)"
units_symbol = "%"
reading = 67

[[record]]
compound = "Clc1nc(Cl)c(Cl)c(Cl)n1"
units_symbol = "%"
reading = 98

[[record]]
compound = "CC1OC(OC2CC(O)(C(=O)CO)Cc3c(O)c4c(c(O)c32)C(=O)c2ccccc2C4=O)CC(N)C1O (stereo not given)"
units_symbol = "%"
reading = 97

[[record]]
compound = "CCN1CCC(O)(/C=C/c2ccc(C)cc2)C(C(=O)/C=C/c2ccc(C)cc2)C1 (stereo not given)"
units_symbol = "%"
reading = 99

[[record]]
compound = "C=CC(=O)OCCOc1ccc(Cl)cc1Cl"
units_symbol = "%"
reading = 98

[[record]]
compound = "Nc1cc(Cl)c(S(=O)(=O)O)cc1Cl"
units_symbol = "%"
reading = 96

[[record]]
compound = "CCOC(=O)c1c[nH]c2c([N+](=O)[O-])cc(OC)cc2c1=O"
units_symbol = "%"
reading = 41

[[record]]
compound = "Cc1ccc(S(=O)(=O)NC2CCCCCCC2)cc1"
units_symbol = "%"
reading = 16


(Q) What measured growth inhibition goes with O=C1C=CC(=O)c2c1ccc1c3ccccc3n(Cc3ccccc3)c21 ?
(A) 90

(Q) What measured growth inhibition goes with O=[N+]([O-])c1c(Br)cc(Br)c2c1Nc1c(ccc(Cl)c1Cl)S2 ?
(A) 95

(Q) What measured growth inhibition goes with O=Cc1cc([N+](=O)[O-])cc(CCl)c1O ?
(A) -8

(Q) What measured growth inhibition goes with O=[N+]([O-])c1cc2c(cc1S(=O)(=O)O)C1C(C3C2C2(Cl)C(Cl)=C(Cl)C3(Cl)C2(Cl)Cl)C2(Cl)C(Cl)=C(Cl)C1(Cl)C2(Cl)Cl (stereo not given) ?
(A) 41

(Q) What measured growth inhibition goes with Cc1nc2c(Br)cc(Br)cc2c(=O)n1-c1ccccc1NC1OC(CO)C(O)C(O)C1O (stereo not given) ?
(A) 25

###

# assay-protocol: NCI Yeast Anticancer Drug Screen. Data for the mlh1 rad18 strain (AID 175)
# condition-details: S. cerevisiae mlh1 rad18 strain growth inhibition; at 5.0 µM (retest, dose inferred, filed as 0.5); active compounds read high
This is part of a sample that, as a whole, favours compounds with a hit. Of some 79,000 tested, about 15% had one in any assay. Active and inactive are the calls of the source. No stated cut-off is given here; in the data, active means growth inhibition above about 70%; inactive means the rest.
Overview of recorded growth inhibition for various compounds

[[record]]
compound = "Nc1nc(N)c2nc3c4ccccc4c4ccccc4c3nc2n1"
reading = "5% (inactive)"

[[record]]
compound = "CCCN(CCC)C(=S)N/N=C/c1ccccn1"
reading = "99% (active)"

[[record]]
compound = "O=C(CNCc1ccccc1)Oc1c(Cl)c(Cl)c(Cl)c(Cl)c1Cl"
reading = "29% (inactive)"

[[record]]
compound = "Nc1nc(-c2ccccn2)cc2ccccc12"
reading = "29% (inactive)"

[[record]]
compound = "O=C(CC(=O)CC(O)(c1ccccc1)c1ccccc1)CC(=O)c1ccccc1"
reading = "30% (inactive)"


(Q) What measured growth inhibition goes with CC1(C)C(c2ccccc2)=Nc2ccccc21 ?
(A) -5% (inactive)

(Q) What measured growth inhibition goes with Cc1ccc(NCCN(C)C)c2c(=O)c3cc(O)ccc3sc12 ?
(A) 18% (inactive)

(Q) What measured growth inhibition goes with Fc1ccc(NC(=S)SCc2ccc3c(c2)OCO3)cc1 ?
(A) -4% (inactive)

(Q) What measured growth inhibition goes with Fc1cccc(NC(=S)SCc2ccc(Cl)c(Cl)c2)c1 ?
(A) 4% (inactive)

(Q) What measured growth inhibition goes with OC1CN(Cc2ccccc2)C[C@@H]1O (some centres undefined) ?
(A) 25% (inactive)
